Target Or System: UniProt P04585
Assay Text: biochemical
Measurement Conditions: Table II; enzyme HIV-1; DOSE 3.300 (unit not given)
Metric Name: PROTEASE % INHIB. (%)
Give your result in % as a bare value.

Which PROTEASE % INHIB. is reported for this compound? CCCC1(CCc2ccc(F)cc2)CC(O)=C(C(c2cccc(NS(=O)(=O)c3cccc4cccnc34)c2)C(C)(C)C)C(=O)O1 (centres unmarked)
100.32

Which PROTEASE % INHIB. is reported for this compound? CC(C)(C)C(C1=C(O)C2CCCCCCC2OC1=O)c1cccc(NS(=O)(=O)c2ccc(C#N)cn2)c1 (centres unmarked)
88.72

Which PROTEASE % INHIB. is reported for this compound? CC(C)CC1(CC(C)C)CC(O)=C(C(c2cccc(NS(=O)(=O)c3cn(C)cn3)c2)C(C)(C)C)C(=O)O1 (racemic)
110.88

Which PROTEASE % INHIB. is reported for this compound? CCCC1(CCc2ccccc2)CC(O)=C(C(c2cccc(NS(=O)(=O)c3ccc(C(F)(F)F)cn3)c2)C(C)(C)C)C(=O)O1 (centres unmarked)
103.03

Which PROTEASE % INHIB. is reported for this compound? CCC[C@@]1(CCc2ccc(F)cc2)CC(O)=C([C@H](c2cccc(NS(=O)(=O)c3cn(C)cn3)c2)C(C)(C)C)C(=O)O1 (single isomer, unassigned)
55.11

Which PROTEASE % INHIB. is reported for this compound? CCC[C@@]1(CCc2ccc(F)cc2)CC(O)=C([C@@H](c2cccc(NS(=O)(=O)c3ccc(N)cn3)c2)C(C)(C)C)C(=O)O1 (single isomer, unassigned) [Example 317]
95.97

Which PROTEASE % INHIB. is reported for this compound? CC(C)(C)C(C1=C(O)CC(CCc2ccccc2)(CCc2ccccc2)OC1=O)c1cccc(NS(=O)(=O)c2ccc(N)cn2)c1 (single isomer, unassigned) [Example 355]
20.72

Which PROTEASE % INHIB. is reported for this compound? CCC[C@]1(CCc2ccc(F)cc2)CC(O)=C([C@H](c2cccc(NS(=O)(=O)c3ccc(C#N)cn3)c2)C(C)(C)C)C(=O)O1 (single isomer, unassigned)
92.96

----------
Please respond with reported inhibition at 0.37 µM for every item in the list.
Target Or System: UniProtKB P04585
Assay Text: biochemical
Measurement Conditions: Table I; Dose 0.370 μM; read-out: Protease % Inhib
Give your result in % as a bare value.

Which inhibition at 0.37 µM is reported for this compound? N#Cc1ccc(S(=O)(=O)Nc2cccc(C(c3c(O)cc(C(CC4CC4)CC4CC4)oc3=O)C3CC3)c2)cc1 (stereo not drawn)
102

Which inhibition at 0.37 µM is reported for this compound? CCC(CCNS(=O)(=O)c1cn(C)cn1)c1cc(O)c(C(c2cccc(NS(=O)(=O)c3cn(C)cn3)c2)C2CC2)c(=O)o1 (stereo not drawn)
99.2

Which inhibition at 0.37 µM is reported for this compound? CCCC1(CCc2ccccc2)CC(O)=C(C(c2cccc(NS(=O)(=O)c3cccc4cccnc34)c2)C2CC2)C(=O)O1 (stereo not drawn)
94.3

Which inhibition at 0.37 µM is reported for this compound? Cn1ccnc1S(=O)(=O)Cc1cccc(C(c2c(O)c3c(oc2=O)CCCCCC3)C2CC2)c1 (stereo not drawn)
88.5

Which inhibition at 0.37 µM is reported for this compound? CCC(CC1CCOCC1)c1cc(O)c(C(c2cccc(NS(=O)(=O)c3cn(C)cn3)c2)C2CC2)c(=O)o1 (stereo not drawn)
84.5

Which inhibition at 0.37 µM is reported for this compound? Cn1cnc(S(=O)(=O)Nc2cccc(C(C3=C(O)CC(CCc4ccccc4)(CCc4ccccc4)OC3=O)C3CC3)c2)c1 (stereo not drawn)
85.2

Which inhibition at 0.37 µM is reported for this compound? CCCC1(CCc2ccccc2)CC(O)=C(C(c2cccc(NS(=O)(=O)c3ccc(C#N)cc3)c2)C2CC2)C(=O)O1 (stereo not drawn)
83.7

Which inhibition at 0.37 µM is reported for this compound? CN(c1cccc(C(c2c(O)c3c(oc2=O)CCCCCC3)C2CC2)c1)S(=O)(=O)c1ccccc1 (stereo not drawn)
20

Which inhibition at 0.37 µM is reported for this compound? CCC(CC1CCCOC1)c1cc(O)c(C(c2cccc(NS(=O)(=O)c3cn(C)cn3)c2)C2CC2)c(=O)o1 (stereo not drawn) [Example 145B]
88.4

----------
Target Or System: HIV-1 protease (Human immunodeficiency virus type 1 group M subtype B)
Assay Text: biochemical
Measurement Conditions: Table II; enzyme HIV-1; read-out: FITC KI
Procedure: The HIV protease screening assay is based on fluorescently labeled substrate which can be resolved from nonlabeled cleavage product using special beads coated with streptavidin. […] The labeled cleavage product is separated from the unreacted substrate via filtration and is read on the Idexx screen machine. The data are analyzed by appropriate computer algorithms to ascertain percent inhibition values. […]
Metric Name: Ki (nM)
Give your result in nM as a bare value.

Which Ki is reported for this molecule? Nc1ccc(S(=O)(=O)Nc2cccc(CC3=C(O)CC(CCc4ccccc4)(CCc4ccccc4)OC3=O)c2)nc1
665

Which Ki is reported for this molecule? CCCC1(CCc2ccccc2)CC(O)=C(C(c2cccc(NS(=O)(=O)c3ccc(C(F)(F)F)cn3)c2)C(C)(C)C)C(=O)O1 (centres unmarked)
4.3

Which Ki is reported for this molecule? N#Cc1ccc(S(=O)(=O)Nc2cccc(CC3=C(O)CC(CCc4ccccc4)(CCc4ccccc4)OC3=O)c2)nc1
10.4

Which Ki is reported for this molecule? CCCC1(CCc2ccc(F)cc2)CC(O)=C(C(CC)c2cccc(NS(=O)(=O)c3ccc(C(N)=O)cn3)c2)C(=O)O1 (centres unmarked)
1.6

Which Ki is reported for this molecule? CCCC1(CCc2ccc(F)cc2)CC(O)=C(C(c2cccc(NS(=O)(=O)c3ccc(C#N)cc3)c2)C(C)(C)C)C(=O)O1 (centres unmarked)
22

Which Ki is reported for this molecule? CC(C)(C)C(C1=C(O)CC(CCc2ccccc2)(CCc2ccccc2)OC1=O)c1cccc(NS(=O)(=O)c2ccc(N)cn2)c1 (single isomer, unassigned)
700

Which Ki is reported for this molecule? CCC[C@@]1(CCc2ccc(F)cc2)CC(O)=C([C@H](c2cccc(NS(=O)(=O)c3cn(C)cn3)c2)C(C)(C)C)C(=O)O1 (single isomer, unassigned)
558

Which Ki is reported for this molecule? CCCC1(CCc2ccc(F)cc2)CC(O)=C(C(c2cccc(NS(=O)(=O)c3cccc4cccnc34)c2)C(C)(C)C)C(=O)O1 (centres unmarked)
12

----------
Target Or System: HIV-1 protease (Human immunodeficiency virus type 1 group M subtype B, UniProt P04585)
Assay Text: biochemical
Measurement Conditions: Table II; enzyme HIV-1; DOSE 3.300 (unit not given)
Metric Name: PROTEASE % INHIB. (%)
Give your result in % as a bare value.

Which PROTEASE % INHIB. is reported for this compound? CCC[C@@]1(CCc2ccc(F)cc2)CC(O)=C([C@@H](c2cccc(NS(=O)(=O)c3ccc(C#N)cn3)c2)C(C)(C)C)C(=O)O1 (single isomer, unassigned) [Example 345]
99.08

Which PROTEASE % INHIB. is reported for this compound? CCC[C@@]1(CCc2ccccc2)CC(O)=C([C@@H](c2cccc(NS(=O)(=O)c3cn(C)cn3)c2)C(C)(C)C)C(=O)O1 (single isomer, unassigned) [Example 308]
108.43

Which PROTEASE % INHIB. is reported for this compound? CCC[C@@]1(CCc2ccc(F)cc2)CC(O)=C([C@@H](c2cccc(NS(=O)(=O)c3cn(C)cn3)c2)C(C)(C)C)C(=O)O1 (single isomer, unassigned) [Example 349]
104.99

Which PROTEASE % INHIB. is reported for this compound? CCC[C@@]1(CCc2ccc(F)cc2)CC(O)=C([C@H](c2cccc(NS(=O)(=O)c3ccc(C#N)cn3)c2)C(C)(C)C)C(=O)O1 (single isomer, unassigned) [Example 347]
83

Which PROTEASE % INHIB. is reported for this compound? CCCC1(CCc2ccc(F)cc2)CC(O)=C(C(CC)c2cccc(NS(=O)(=O)c3ccc(C(N)=O)cn3)c2)C(=O)O1 (centres unmarked) [Example 332]
93.28

----------
Please respond with reported inhibition at 1.1 µM for every item in the list.
Target Or System: HIV-1 protease (Human immunodeficiency virus type 1 group M subtype B, UniProt P04585)
Assay Text: biochemical
Measurement Conditions: Table I; Dose 1.100 μM; read-out: Protease % Inhib
Give your result in % as a bare value.

Which inhibition at 1.1 µM is reported for this compound? CCC(CCNS(=O)(=O)c1cn(C)cn1)c1cc(O)c(C(c2cccc(NS(=O)(=O)c3cn(C)cn3)c2)C2CC2)c(=O)o1 (stereo not drawn)
105

Which inhibition at 1.1 µM is reported for this compound? Cn1ccnc1S(=O)(=O)Cc1cccc(C(c2c(O)c3c(oc2=O)CCCCCC3)C2CC2)c1 (stereo not drawn)
92.4

Which inhibition at 1.1 µM is reported for this compound? CC[C@H](Cc1ccccc1)c1cc(O)c(C(c2cccc(NS(=O)(=O)c3nccn3C)c2)C2CC2)c(=O)o1 (single isomer, unassigned)
105

Which inhibition at 1.1 µM is reported for this compound? Cn1cnc(S(=O)(=O)Nc2cccc(C(C3=C(O)CC(CCc4ccccc4)(CCc4ccccc4)OC3=O)C3CC3)c2)c1 (stereo not drawn)
85.3

Which inhibition at 1.1 µM is reported for this compound? CC[C@H](Cc1ccccc1)c1cc(O)c(C(c2cccc(NS(=O)(=O)c3ccc(C#N)cc3)c2)C2CC2)c(=O)o1 (single isomer, unassigned)
95.6

Which inhibition at 1.1 µM is reported for this compound? CCCC1(CCC)CC(O)=C(C(CC)c2cccc(NS(=O)(=O)c3cn(C)cn3)c2)C(=O)O1 (stereo not drawn)
120

Which inhibition at 1.1 µM is reported for this compound? CC(C)CC(c1cccc(NS(=O)(=O)c2cn(C)cn2)c1)c1c(O)c2c(oc1=O)CCCCCC2 (single isomer, unassigned) [Example 8]
103

Which inhibition at 1.1 µM is reported for this compound? Cn1cnc(S(=O)(=O)Nc2cccc(C(C3=C(O)CC(CCC4CC4)(CCC4CC4)OC3=O)C(C)(C)C)c2)c1 (stereo not drawn)
67.7

Which inhibition at 1.1 µM is reported for this compound? CCCC1(CCc2ccccc2)CC(O)=C(C(CC)c2cccc(NS(=O)(=O)c3ccc(C#N)cc3)c2)C(=O)O1 (stereo not drawn)
98.7

Which inhibition at 1.1 µM is reported for this compound? CCCC1(CCc2ccc(F)cc2)CC(O)=C(C(c2cccc(NS(=O)(=O)c3ccc(C#N)cn3)c2)C(C)(C)C)C(=O)O1 (stereo not drawn)
97.6

Which inhibition at 1.1 µM is reported for this compound? CCC(CC1CCCOC1)c1cc(O)c(C(c2cccc(NS(=O)(=O)c3cn(C)cn3)c2)C2CC2)c(=O)o1 (stereo not drawn) [Example 145B]
96.5

Which inhibition at 1.1 µM is reported for this compound? O=c1oc2c(c(O)c1C(c1cccc(NS(=O)(=O)c3ccccn3)c1)C1CC1)CCCCCC2 (stereo not drawn)
98.4

Which inhibition at 1.1 µM is reported for this compound? CC[C@@H](Cc1ccccc1)c1cc(O)c(C(c2cccc(NS(=O)(=O)c3cn(C)cn3)c2)C2CC2)c(=O)o1 (single isomer, unassigned)
105

Which inhibition at 1.1 µM is reported for this compound? CN(c1cccc(C(c2c(O)c3c(oc2=O)CCCCCC3)C2CC2)c1)S(=O)(=O)c1ccc(C#N)cc1 (stereo not drawn)
94

Which inhibition at 1.1 µM is reported for this compound? CC(C)CC(c1cccc(NS(=O)(=O)c2cn(C)cn2)c1)c1c(O)c2c(oc1=O)CCCCCC2 (single isomer, unassigned) [Example 9]
105

Which inhibition at 1.1 µM is reported for this compound? CCCC1(CCC)CC(O)=C(C(c2cccc(NS(=O)(=O)c3ccc(C#N)cc3)c2)C2CC2)C(=O)O1 (stereo not drawn)
113

Which inhibition at 1.1 µM is reported for this compound? CCCC1(CCC)CC(O)=C(C(c2cccc(NS(=O)(=O)c3ccc(F)cc3)c2)C2CC2)C(=O)O1 (stereo not drawn)
105

Which inhibition at 1.1 µM is reported for this compound? CCCCCC1(CCCCC)CC(O)=C(C(CC)c2cccc(NS(=O)(=O)c3ccc(C#N)cc3)c2)C(=O)O1 (stereo not drawn)
75.6

Which inhibition at 1.1 µM is reported for this compound? CCCC1(CCC)CC(O)=C(C(CC)c2cccc(NS(=O)(=O)c3cccc4cccnc34)c2)C(=O)O1 (single isomer, unassigned) [Example 52]
92.6

Which inhibition at 1.1 µM is reported for this compound? CCC(CC1CCOCC1)c1cc(O)c(C(c2cccc(NS(=O)(=O)c3cn(C)cn3)c2)C2CC2)c(=O)o1 (stereo not drawn)
99.1

Which inhibition at 1.1 µM is reported for this compound? CCCC1(CCc2ccccc2)CC(O)=C(C(c2cccc(NS(=O)(=O)c3ccc(C#N)cc3)c2)C2CC2)C(=O)O1 (stereo not drawn)
94.2

Which inhibition at 1.1 µM is reported for this compound? CCCC1(CCC)CC(O)=C(C(c2cccc(NS(=O)(=O)c3cn(C)cn3)c2)C2CC2)C(=O)O1 (single isomer, unassigned) [Example 56]
105

Which inhibition at 1.1 µM is reported for this compound? CCC(Cc1ccccc1)c1cc(O)c(C(c2cccc(NS(=O)(=O)c3cn(C)cn3)c2)C2CC2)c(=O)o1 (stereo not drawn)
99

Which inhibition at 1.1 µM is reported for this compound? CCCC1(CCC)CC(O)=C(C(CC)c2cccc(NS(=O)(=O)c3ccc(C#N)cc3)c2)C(=O)O1 (stereo not drawn)
103

Which inhibition at 1.1 µM is reported for this compound? Cc1ccc(S(=O)(=O)Cc2cccc(C(c3c(O)c4c(oc3=O)CCCCCC4)C3CC3)c2)cc1 (stereo not drawn)
94

Which inhibition at 1.1 µM is reported for this compound? COCCOCCOCCOc1ccc2c(O)c(C(c3cccc(NS(=O)(=O)c4cccc5cccnc45)c3)C3CC3)c(=O)oc2c1 (stereo not drawn)
100

Which inhibition at 1.1 µM is reported for this compound? CCCC1(CCc2ccc(F)cc2)CC(O)=C(C(c2cccc(NS(=O)(=O)c3cn(C)cn3)c2)C(C)(C)C)C(=O)O1 (stereo not drawn)
89.7

# credit: patent US6169181A
